Biological target: MNK2a (Homo sapiens (Human))
Sequence (Q9HBH9 whole entry): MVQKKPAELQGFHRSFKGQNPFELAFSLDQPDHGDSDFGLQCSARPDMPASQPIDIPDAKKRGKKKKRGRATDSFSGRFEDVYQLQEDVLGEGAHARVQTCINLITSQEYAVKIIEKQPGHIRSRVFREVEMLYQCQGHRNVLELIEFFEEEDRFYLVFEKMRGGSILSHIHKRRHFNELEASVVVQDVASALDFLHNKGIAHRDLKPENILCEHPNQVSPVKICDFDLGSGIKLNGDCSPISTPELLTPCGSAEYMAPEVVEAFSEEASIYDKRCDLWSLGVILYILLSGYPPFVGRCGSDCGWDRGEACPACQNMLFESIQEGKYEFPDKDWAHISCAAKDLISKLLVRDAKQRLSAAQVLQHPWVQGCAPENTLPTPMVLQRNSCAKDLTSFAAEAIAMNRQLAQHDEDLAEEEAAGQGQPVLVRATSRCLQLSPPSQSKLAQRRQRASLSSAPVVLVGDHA
Assay: MNK2a in vitro kinase assay (Assay 2), ADP-Glo
Assay type: biochemical
Details: assay 2; read-out: MNK2 IC50
Please provide measured IC50 for the entries that follow.
Numbers only, in nM.

Observe how each entry below is paired with its result.
[
  {
    "COMPOUND": "Cc1cc(N=S(C)(C)=O)cc2ncnc(Nc3ccc(F)cc3O[C@@H]3C[C@@H]4CC[C@H]3O4)c12 (racemic)",
    "NUMBER": 6
  },
  {
    "COMPOUND": "CO[C@@H]1COC[C@@H]1Oc1cc(F)ccc1Nc1ncnc2cc(N=S3(=O)CCCC3)cc(C)c12 (racemic)",
    "NUMBER": 2
  }
]

# evaluate next
## Task What measured IC50 goes with COc1cc(N=S2(=O)CCC(O)CC2)cc2ncnc(Nc3ccc(F)cc3O[C@H]3COC[C@H]3O)c12 (mixture of isomers) ?
## Result 26

// data source = patent US10093660B2
